All values here come from patent US20200347144A1.

OD450 nm: recorded values
Target: T1, mouse 4-1BB protein (extracellular domain) (mouse, UniProt P20334 24-187)
T1 construct: extracellular domain; also called mouse 4-1BB-his; mouse 4-1BB-hFc protein
T1 sequence (looked up): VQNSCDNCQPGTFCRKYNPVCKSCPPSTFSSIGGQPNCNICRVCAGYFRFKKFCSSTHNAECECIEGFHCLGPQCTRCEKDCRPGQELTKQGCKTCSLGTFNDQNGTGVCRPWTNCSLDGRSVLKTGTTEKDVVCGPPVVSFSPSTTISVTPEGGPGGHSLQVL
Experiment: ELISA, coated mouse 4-1BB; Ab 0.4 ug/ml
Excerpt: […]
Kindly provide the numeric value in OD450 nm only, without the unit symbol.

binder | measuredResult
170D7F2 (antibody, V domains shown) VH: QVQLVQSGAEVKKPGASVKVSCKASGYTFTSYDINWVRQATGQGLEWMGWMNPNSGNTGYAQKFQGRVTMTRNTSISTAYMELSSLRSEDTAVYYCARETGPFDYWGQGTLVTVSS VL: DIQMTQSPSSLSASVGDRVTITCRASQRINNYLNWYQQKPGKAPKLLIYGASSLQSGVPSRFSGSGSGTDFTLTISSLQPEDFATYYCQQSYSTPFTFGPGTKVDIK | 0.12
57B3D10 (antibody, V domains shown, also called 4-1BB fully human antibody 57B3D10) VH: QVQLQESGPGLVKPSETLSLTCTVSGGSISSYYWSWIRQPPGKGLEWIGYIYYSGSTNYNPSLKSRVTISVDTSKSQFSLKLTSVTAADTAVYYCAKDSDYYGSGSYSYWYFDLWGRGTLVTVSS VL: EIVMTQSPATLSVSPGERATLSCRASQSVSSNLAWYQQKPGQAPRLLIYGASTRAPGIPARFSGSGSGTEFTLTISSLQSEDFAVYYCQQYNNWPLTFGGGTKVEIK | 0.28
118F3A2 (antibody, V domains shown) VH: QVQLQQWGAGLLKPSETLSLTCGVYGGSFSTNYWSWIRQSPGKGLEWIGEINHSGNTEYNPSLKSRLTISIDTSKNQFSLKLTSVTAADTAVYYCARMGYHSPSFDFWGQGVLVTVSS VL: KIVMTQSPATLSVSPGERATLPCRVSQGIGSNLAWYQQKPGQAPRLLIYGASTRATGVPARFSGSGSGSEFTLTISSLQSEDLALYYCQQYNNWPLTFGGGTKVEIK | 0.06
172E3E3 (antibody, V domains shown) VH: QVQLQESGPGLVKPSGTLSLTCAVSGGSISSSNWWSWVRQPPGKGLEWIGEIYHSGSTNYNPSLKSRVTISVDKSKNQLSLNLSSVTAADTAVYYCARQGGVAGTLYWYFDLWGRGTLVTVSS VL: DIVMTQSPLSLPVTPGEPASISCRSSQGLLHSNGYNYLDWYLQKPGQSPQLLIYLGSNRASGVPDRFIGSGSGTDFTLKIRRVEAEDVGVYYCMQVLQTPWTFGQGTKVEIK | 0.06

Okay, now this binder:
In: What value of measured OD450 nm is listed for 113F6C6 (antibody, V domains shown, also called 4-1BB fully human antibody 113F6C6; 113F6F6) VH: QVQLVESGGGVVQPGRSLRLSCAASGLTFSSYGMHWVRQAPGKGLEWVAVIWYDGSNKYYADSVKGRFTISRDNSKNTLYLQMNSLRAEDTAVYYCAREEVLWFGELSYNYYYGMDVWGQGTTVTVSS VL: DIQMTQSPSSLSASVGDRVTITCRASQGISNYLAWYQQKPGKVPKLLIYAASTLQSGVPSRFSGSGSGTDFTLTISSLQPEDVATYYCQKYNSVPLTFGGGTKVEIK ?
Out: 0.08
